Tested on: ATP;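 also: ATP exposure 15 min at 22 °C before imaging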
testName: switch fluorescence ratio, 500 uM ATP over buffer (Cy3 cluster intensity, sum of 5 cycles each) (fold (ratio)); higher = stronger signal-on switching upon ATP binding; sequences stand for … in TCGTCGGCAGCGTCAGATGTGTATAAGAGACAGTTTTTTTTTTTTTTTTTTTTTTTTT…TC
measurementContext: aptamer strand: ATP DNA aptamer (quencher-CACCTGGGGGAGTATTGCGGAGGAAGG + anchor), 100 nM annealed; ATP concentration: 500 uM
experimentalEndpoint: switch fluorescence ratio
Numbers only.

Known results for sequences:
TTTAACCTGC; 1.06
ATGGTCTGCG; 1
TATACATCTG; 1.01
GGCAGCGGGG; 0.991

From here, focus on the item given below.
Entry CCGCAGCGGA , switch fluorescence ratio reported as 2.12

====

Test system: ATP;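 also: ATP exposure 15 min at 22 °C before imaging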
testName: switch fluorescence ratio, 500 uM ATP over buffer (Cy3 cluster intensity, sum of 5 cycles each) (fold (ratio)); higher = stronger signal-on switching upon ATP binding; sequences stand for … in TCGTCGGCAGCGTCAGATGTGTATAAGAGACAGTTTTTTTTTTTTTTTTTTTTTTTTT…TC
measurementContext: aptamer strand: ATP DNA aptamer (quencher-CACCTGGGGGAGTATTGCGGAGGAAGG + anchor), 100 nM annealed; ATP concentration: 500 uM
Field: switch fluorescence ratio. Provide a value for each of the sequences that follow.
Give bare numbers.

TAAGTATGGT; 1.03
CAGGTCCAGT; 0.993
GGTTGGGGAG; 0.985
TTTGGCTTGT; 0.971
ACCAGCCGGG; 1.09
TTAAGGGGA; 1.06
CCGTAGAGTT; 1.29
GGATTTAATA; 1.02
TAATATGGGC; 1.02
AGAATCACTG; 1.08

Items follow; give switch fluorescence ratio for each.
1. ATTATGCTTT
2. TGGGAAATCG
3. TATCAAAGGG

1: 1; 2: 1.03; 3: 1.02

Look up switch fluorescence ratio for the entries below, preserving their order.
1. GGGGAATTAG
2. CATTGGGGGT
3. GGGTTTGAGG
4. CCGAGGGGGA

0.973
1.04
0.981
1.26

====

Test system: ATP;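 also: ATP exposure 15 min at 22 °C before imaging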
testName: switch fluorescence ratio, 500 uM ATP over buffer (Cy3 cluster intensity, sum of 5 cycles each) (fold (ratio)); higher = stronger signal-on switching upon ATP binding; sequences stand for … in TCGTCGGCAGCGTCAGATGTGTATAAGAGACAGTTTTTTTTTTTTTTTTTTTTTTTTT…TC
measurementContext: aptamer strand: ATP DNA aptamer (quencher-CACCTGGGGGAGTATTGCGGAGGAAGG + anchor), 100 nM annealed; ATP concentration: 500 uM
experimentalEndpoint: switch fluorescence ratio
One number for each entry.

ATAGTTGGGG; 1.02
TTTGTAGGCG; 0.983
AGCTAATCGT; 1.01

I'm hoping you can list switch fluorescence ratio for every sequence here, please.
1. TCTTTAGGGA
2. ATTTTCACC
3. GGCCTCTGCT
4. AACGCGAGTA
5. GGATATCTGG

[1.02, 1.01, 1.02, 0.986, 1.01]

Value sought for every listed sequence: switch fluorescence ratio.
1. TTAAGCTGGT
2. ATTAATCTT
3. CGGGTTTTAC

1. 0.985
2. 1.01
3. 1.01

Hi team, please reply with switch fluorescence ratio for each item in this list.
1. TGTTTGTCTT
2. GGGTGGTAAG
3. GATCAGTTTT
4. GGATTGTTTG
5. ATAAATGTGT
6. CATTTTTGGA

[1, 0.997, 0.977, 1.01, 1.01, 1]

Hello, I would appreciate it if you could give switch fluorescence ratio for each entry below.
1. AGAGTTTGAA
2. GAGATGGTTT
3. ATTAGAATTA
4. ATCCAGGGGA

1. 1.02
2. 0.997
3. 0.982
4. 0.989

Give measured switch fluorescence ratio for every item shown.
1. TAACGGGGTT
2. CATAGAGTGT
3. TTAGAGAGCG
4. ATTTTTCGTT
5. TTATGGCTTT
6. GAATCTATTC
7. GTAATAGGAG

[0.983, 1, 1.02, 1, 0.985, 1.01, 1.02]

====

Test system: ATP;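 also: ATP exposure 15 min at 22 °C before imaging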
testName: switch fluorescence ratio, 500 uM ATP over buffer (Cy3 cluster intensity, sum of 5 cycles each) (fold (ratio)); higher = stronger signal-on switching upon ATP binding; sequences stand for … in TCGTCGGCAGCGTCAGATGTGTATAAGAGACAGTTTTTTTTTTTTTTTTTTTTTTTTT…TC
measurementContext: aptamer strand: ATP DNA aptamer (quencher-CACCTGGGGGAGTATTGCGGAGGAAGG + anchor), 100 nM annealed; ATP concentration: 500 uM
experimentalEndpoint: switch fluorescence ratio
Give bare numbers.

Past entries and their recorded results:
AATTCGGCTT; 0.978
GGGGGAAAG; 1
AGATCTTGTG; 1
TGGTCGGCTG; 1.01
GATCTGCACG; 0.995
GTAGGTAACG; 0.987
TCTGTCTGAG; 0.988
TTTGATTGGT; 0.99
GGCTGAAGGG; 0.996
AGGGGGGAGG; 0.997

// for each sequence below, give its switch fluorescence ratio
1. AGGTGGTGAC
2. ATATTTGCGT
3. GGGCTTTTGG
4. AGAATATGTT
5. TCCATTTTGT
6. ATGTGCTCTC
7. TATTTATGTA

1: 0.979; 2: 0.974; 3: 0.987; 4: 0.983; 5: 1.01; 6: 0.982; 7: 1.01

For every item below, please supply its switch fluorescence ratio.
1. TCGGCGGTCT
2. CGGTCAGTTT
3. GAGCTAAGTT

[0.999, 1.02, 0.992]

Report switch fluorescence ratio for each item below.
1. GACGGTGGCT
2. CGTTTTCGGA
3. TTATGGGGAG
4. GGTTTGGTTG

1.01
0.982
1
1

====

Provide the reported switch fluorescence ratio of each item.
Test system: ATP;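 also: ATP exposure 15 min at 22 °C before imaging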
testName: switch fluorescence ratio, 500 uM ATP over buffer (Cy3 cluster intensity, sum of 5 cycles each) (fold (ratio)); higher = stronger signal-on switching upon ATP binding; sequences stand for … in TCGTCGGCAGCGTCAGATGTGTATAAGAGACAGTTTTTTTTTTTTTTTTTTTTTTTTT…TC
measurementContext: aptamer strand: ATP DNA aptamer (quencher-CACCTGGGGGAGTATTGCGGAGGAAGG + anchor), 100 nM annealed; ATP concentration: 500 uM
Give bare numbers.

Solved cases below.
TAAAGGAAGG; 0.98
CGAAGGCTCG; 0.99
AGAGTTTTCT; 0.992
GTTAGGGGTT; 0.996
CGCTTGTGTT; 0.982

State the recorded switch fluorescence ratio for every item in the following list.
1. CCGGGTGGTT
2. GGTTTGCACG
3. TGAGCTAGCT
4. GGATAATAAG

1.02
0.992
1.01
1.01

====

Tested on: ATP;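 also: ATP exposure 15 min at 22 °C before imaging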
testName: switch fluorescence ratio, 500 uM ATP over buffer (Cy3 cluster intensity, sum of 5 cycles each) (fold (ratio)); higher = stronger signal-on switching upon ATP binding; sequences stand for … in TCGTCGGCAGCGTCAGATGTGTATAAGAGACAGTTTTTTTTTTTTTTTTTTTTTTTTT…TC
measurementContext: aptamer strand: ATP DNA aptamer (quencher-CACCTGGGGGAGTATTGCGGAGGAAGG + anchor), 100 nM annealed; ATP concentration: 500 uM
For each of the sequences below, state its switch fluorescence ratio.
Numbers only.

Completed entries (count: 10):
TTGAGTTCTC; 0.978
GTTTAATTGC; 0.995
ATGTGTTACG; 1.05
GACAGGGGCG; 1.19
AGCACGCACA; 1.77
CGCTAACTTG; 1.01
ACTCACTGGT; 1.23
GCTTATGGGA; 1
CGAATGGGGA; 0.992
TCTGTTGCAG; 0.999

For each listed entry, give its switch fluorescence ratio.
1. GGGGAAATAT
2. GGGAATGTAG
3. TGCAGGGACG
4. GACCTATTTC
5. CTCTTGGGAA

1. 0.981
2. 1.01
3. 1
4. 1.01
5. 0.992

Hello, I would appreciate it if you could give switch fluorescence ratio for each entry below.
1. GGGGCGCGCC
2. GACGTGTAGT
3. ATTGCCACGG
4. AATTGTTATG
5. GATTCCCTAT
6. AGTAGACGAC

1.02
1.02
1.03
0.999
1
1.03

Take each entry in turn and give its switch fluorescence ratio.
1. TCCAGGTTAG
2. TATGTTTCCT
3. TTAAGAACGG
4. CAGCCTGCGG
5. CATGGGGGAT
6. CGGATATTGT

1: 1.17; 2: 1.02; 3: 1.03; 4: 1.01; 5: 1.01; 6: 0.995

Hi there! I need switch fluorescence ratio for each item below, if you can.
1. ACACGTGCCC
2. GCTATGTGTA

1. 1
2. 0.975
